tested on: Saccharomyces cerevisiae; experiment: protein stability index of tFT-peptide fusion (C-terminal peptide) (PSI (0-1 scale)); higher = more stable (slower turnover); conditions: genetic background: wild type; temperature: 30 C
Respond with Satisfied for protein stability index values of 0.7 and above, Not satisfied for values below.

Check the entry `HGVYSVLRFFFC` : does protein stability index equal or exceed 0.7?
Not satisfied

Check the entry `RRRRHVDHSTQR` : does protein stability index equal or exceed 0.7?
Not satisfied

Check the entry `PPLPHQPSHPIS` : does protein stability index equal or exceed 0.7?
Not satisfied

Check the entry `GPKGVTRCGATR` : does protein stability index equal or exceed 0.7?
Satisfied

Check the entry `VRVLPFCWCIVR` : does protein stability index equal or exceed 0.7?
Not satisfied

Check the entry `CVLGVGVPAGGG` : does protein stability index equal or exceed 0.7?
Not satisfied

Check the entry `LFALSVHTHPYP` : does protein stability index equal or exceed 0.7?
Satisfied

Check the entry `GGGLGWVWVKLG` : does protein stability index equal or exceed 0.7?
Satisfied

Check the entry `ALWALSTHHVRK` : does protein stability index equal or exceed 0.7?
Satisfied

---

test system: Saccharomyces cerevisiae; assay: protein stability index of tFT-peptide fusion (C-terminal peptide) (PSI (0-1 scale)); higher = more stable (slower turnover); settings: genetic background: wild type; temperature: 30 C
Respond with True for protein stability index values of 0.6 and above, False for values below.

Check the entry `YLGSLQVPVHLF` : does protein stability index equal or exceed 0.6?
False

Check the entry `LRRLSTGTLSIL` : does protein stability index equal or exceed 0.6?
True

Check the entry `FPPARPDFPPST` : does protein stability index equal or exceed 0.6?
True

Check the entry `RESSAYPPPGEG` : does protein stability index equal or exceed 0.6?
True

Check the entry `PAPLLPLSPPRP` : does protein stability index equal or exceed 0.6?
True

Check the entry `FCLGFRFFVFFL` : does protein stability index equal or exceed 0.6?
False

Check the entry `FVCLCGFLQVLS` : does protein stability index equal or exceed 0.6?
False

Check the entry `SNVHDEVLWTRA` : does protein stability index equal or exceed 0.6?
True

Check the entry `SWRRRNGNCERR` : does protein stability index equal or exceed 0.6?
True

Check the entry `FIFHFLMFPGPL` : does protein stability index equal or exceed 0.6?
False

Check the entry `VYTFGASKSMLG` : does protein stability index equal or exceed 0.6?
True

Check the entry `IPQTITLPHSNP` : does protein stability index equal or exceed 0.6?
True

Check the entry `TGNQCGNGYSWR` : does protein stability index equal or exceed 0.6?
True

Check the entry `GRAWWVGGEGVW` : does protein stability index equal or exceed 0.6?
True

Check the entry `AGLACWGGVGER` : does protein stability index equal or exceed 0.6?
True

Check the entry `HRGIPMRDLAPN` : does protein stability index equal or exceed 0.6?
True

Check the entry `TIVRTTLLEIWR` : does protein stability index equal or exceed 0.6?
True

Check the entry `LLAWLHTVQRVG` : does protein stability index equal or exceed 0.6?
False

Check the entry `HINVAVAKYSRQ` : does protein stability index equal or exceed 0.6?
True

Check the entry `ERRGGRKGRGRE` : does protein stability index equal or exceed 0.6?
True

Check the entry `SYTAPPLLRSSY` : does protein stability index equal or exceed 0.6?
True

Check the entry `ASPAWYARGISR` : does protein stability index equal or exceed 0.6?
True

Check the entry `GWAFDVAGQSAR` : does protein stability index equal or exceed 0.6?
True

Check the entry `TTSQGHLCVAPR` : does protein stability index equal or exceed 0.6?
True

Check the entry `SSVILPLRRWPP` : does protein stability index equal or exceed 0.6?
True

Check the entry `LVFLRDFFSLFS` : does protein stability index equal or exceed 0.6?
True

Check the entry `SWWISKWVGLNC` : does protein stability index equal or exceed 0.6?
False

Check the entry `CRMPLFGSYPLG` : does protein stability index equal or exceed 0.6?
True

Check the entry `GVSPSCILPLIL` : does protein stability index equal or exceed 0.6?
True

Check the entry `IKGKNTGKERER` : does protein stability index equal or exceed 0.6?
True

Check the entry `KDEWVQSHTNQV` : does protein stability index equal or exceed 0.6?
True

Check the entry `ALRPLLGRDHKV` : does protein stability index equal or exceed 0.6?
True

Check the entry `PVGLMKRFRLFI` : does protein stability index equal or exceed 0.6?
False

Check the entry `RRERQRRARTEI` : does protein stability index equal or exceed 0.6?
True

Check the entry `KVKIKREKKKRK` : does protein stability index equal or exceed 0.6?
True

Check the entry `PPSMRQRKRSGP` : does protein stability index equal or exceed 0.6?
True

Check the entry `APAPTLPALPPL` : does protein stability index equal or exceed 0.6?
True

Check the entry `LLLSSPPFPALL` : does protein stability index equal or exceed 0.6?
True

Check the entry `YSDNIHIEFEDC` : does protein stability index equal or exceed 0.6?
True

---

tested on: Saccharomyces cerevisiae; experiment: protein stability index of tFT-peptide fusion (C-terminal peptide) (PSI (0-1 scale)); higher = more stable (slower turnover); settings: genetic background: wild type; temperature: 30 C
observable: protein stability index
Answer using only a numeral; do not append any unit.

Input RFAKGGKFVEVD [ATP18 C-terminal 12 aa] , output reported protein stability index.
0.668

Input SCAKDILGEENF [BRE4 C-terminal 12 aa] , output reported protein stability index.
0.661

Input LKALANETMSRI [VPS16 C-terminal 12 aa] , output reported protein stability index.
0.706

Input LPAEILSNEPLK [YML119W C-terminal 12 aa] , output reported protein stability index.
0.692

Input MVEAAALKRNKK [ARO10 C-terminal 12 aa] , output reported protein stability index.
0.716

Input CDVKSSIIVGIL [YLR358C C-terminal 12 aa] , output reported protein stability index.
0.655

Input QTILFAAFLPPA [GPI18 C-terminal 12 aa] , output reported protein stability index.
0.682

Input ALSKDGIYTIAN [PAU1 C-terminal 12 aa] , output reported protein stability index.
0.721

Input GFRPAGATRFYS [YHR086W-A C-terminal 12 aa] , output reported protein stability index.
0.691

Input VRQVEEDENYDD [CYC8 C-terminal 12 aa] , output reported protein stability index.
0.748

Input SSAASSQVPAST [PTK1 C-terminal 12 aa] , output reported protein stability index.
0.674

Input QDKQVKSWWRFW [CBP4 C-terminal 12 aa] , output reported protein stability index.
0.714

Input LALYKKAYGIEF [STP2 C-terminal 12 aa] , output reported protein stability index.
0.667

Input RHCARVKRSSRL [LYS1 C-terminal 12 aa] , output reported protein stability index.
0.823

Input RLNNWLFGWNDL [NUP53 C-terminal 12 aa] , output reported protein stability index.
0.707

Input LFSVLVALLALL [CRH1 C-terminal 12 aa] , output reported protein stability index.
0.48

Input SKFTGRKRRHRF [BUD23 C-terminal 12 aa] , output reported protein stability index.
0.711

Input YELDGPYMSKRI [ELP3 C-terminal 12 aa] , output reported protein stability index.
0.704

Input CCCFLLELVCDN [YDR210W C-terminal 12 aa] , output reported protein stability index.
0.523

Input VGLLTAIIMSIM [PST1 C-terminal 12 aa] , output reported protein stability index.
0.529

Input LCMSCGYVSAGK [YMR173W-A C-terminal 12 aa] , output reported protein stability index.
0.749

Input MQLARRIRGQFI [CSE4 C-terminal 12 aa] , output reported protein stability index.
0.646

Input SPKEEKRFKFKL [YGR127W C-terminal 12 aa] , output reported protein stability index.
0.801

Input HAYVIEKLPDVF [FCF1 C-terminal 12 aa] , output reported protein stability index.
0.698

Input VGGIDYIKEFLS [CDA2 C-terminal 12 aa] , output reported protein stability index.
0.264

Input LVSMTILVSGLI [SHE9 C-terminal 12 aa] , output reported protein stability index.
0.262

Input NVKVKALQRMTW [TIS11 C-terminal 12 aa] , output reported protein stability index.
0.729

Input YVKQQHGQSQND [EAF6 C-terminal 12 aa] , output reported protein stability index.
0.694

Input KVKRLMDFLEED [NSL1 C-terminal 12 aa] , output reported protein stability index.
0.694

Input QKAKLNKLDSKK [NOP7 C-terminal 12 aa] , output reported protein stability index.
0.704

Input NKAPSWLLTALE [OCA1 C-terminal 12 aa] , output reported protein stability index.
0.69

Input PSPGFHMYGCHT [YLR156W C-terminal 12 aa] , output reported protein stability index.
0.695

Input ELSNNLNVDEFV [LRS4 C-terminal 12 aa] , output reported protein stability index.
0.687

Input DSDADIEELLEE [PGA2 C-terminal 12 aa] , output reported protein stability index.
0.689

Input THMKPWYRRWFW [INA17 C-terminal 12 aa] , output reported protein stability index.
0.718

Input KNRRGNRSGYRR [THO1 C-terminal 12 aa] , output reported protein stability index.
0.689

Input MIVRFFKKVTFR [CHS1 C-terminal 12 aa] , output reported protein stability index.
0.705

Input RLRAKSPYAWDD [YHK8 C-terminal 12 aa] , output reported protein stability index.
0.721

Input NSEKDQVPILSS [SSK22 C-terminal 12 aa] , output reported protein stability index.
0.729

Input TILLFYPPLLKR [YDR544C C-terminal 12 aa] , output reported protein stability index.
0.612

Input VLGDCQHVTSLL [HST4 C-terminal 12 aa] , output reported protein stability index.
0.72

Input TGLAGEGDTLVT [TAG1 C-terminal 12 aa] , output reported protein stability index.
0.685

Input EAQLSSNDEPLP [YCR102W-A C-terminal 12 aa] , output reported protein stability index.
0.721

Input LETDQDFLDGLL [YER034W C-terminal 12 aa] , output reported protein stability index.
0.695

Input QTTFLATAIVLC [YOR331C C-terminal 12 aa] , output reported protein stability index.
0.417

Input KDEVTDDMQLEV [JLP2 C-terminal 12 aa] , output reported protein stability index.
0.68

Input AAQLSSILPKYM [YLR140W C-terminal 12 aa] , output reported protein stability index.
0.566

Input DVEIDEDEEYFY [SPO12 C-terminal 12 aa] , output reported protein stability index.
0.71

Input RPVLSEEQRKNC [YDR344C C-terminal 12 aa] , output reported protein stability index.
0.679

Entry source: the supplement of paper PMC10724198
